B1: SMOC2 (parent)
chain: DCAGSPQKPLCASDGRTFLSRCEF

Variants of: B1
Experiment: protein stability index of a GFP-peptide fusion (GPS, HEK-293T) (PSI 1-6); higher = more stable;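 also: lentivirally expressed fusions sorted by FACS into six bins by GFP to DsRed ratio, PSI derived from sequencing read proportions per bin multiplied by bin number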
Conditions: c terminus: a fixed tail appended
attributeMeasured: protein stability index
Give your answer as a number; write no unit.

sequencechange=L19M attributemeasured="protein stability index" endpointresult=2.99
sequencechange=S20E attributemeasured="protein stability index" endpointresult=2.93
sequencechange=S20K attributemeasured="protein stability index" endpointresult=3.04
sequencechange=S13F attributemeasured="protein stability index" endpointresult=1.7
sequencechange=R21K attributemeasured="protein stability index" endpointresult=2.67

Please supply the value of reported protein stability index for the item `L19W`
2.34

Please report protein stability index for the following variant: `P9K`
1.85

Please report the measured protein stability index for `C22V`
2.63

Return protein stability index for the following variant: `P6R`
2.19

Look up and state reported protein stability index for `F24P`
2.43

Read the entry `C2A` and write its reported protein stability index.
2.79

The origin of these recorded values is the supplement of paper PMC10567573.
